- measuredOn: hrPrP23-231 (recombinant human prion protein, full length) (Homo sapiens, UniProt P04156 P04156:23-231)
- assayNotes: filter; with 10 ng/uL tRNA; 250 mM NaCl, 37 C
- experimentalContext: tags: provided by Man-Sun Sy, Case Western; label: internal 32P
property: Kd (nM)
Dear colleague, please return just the value in nM, with no unit written.

Q. Param item = GGGAAUUUGAGGACGAUGGUAAGUGG (ssRNA) [AP46] ; retrieve measured Kd.
A. 100
